Test system: HT29 colon
Assay: NCI-60 one-dose screen, 48 h
Conditions: 10 µM unless noted
The panel holds about 83,000 compounds, 20% with a hit somewhere; the sample as a whole holds those more often. The source made the active and inactive calls. How the source made its calls: active means growth percent below 10; inactive means the rest.
Result category, one only: active, inactive

Answered examples (5):
• Fc1ccc(-c2cc3nc(C(Cl)Cl)nc(-c4ccc(Cl)cc4)n3n2)cc1 = active
• CN(C)c1ccc(/C=c2\sc3nc4ccccc4n3c2=O)cc1 = inactive
• COc1cccc(COc2ccc(/C=C3/C(=O)Nc4cc(Cl)ccc43)cc2)c1 = inactive
• C#Cc1nc(C2=C(C)C(=N\O)/C(=N/O)C2)cs1 = inactive
• COc1cc(/C=C/C(=O)c2ccccc2)ccc1Oc1nc(NCCO)nc(N2CCOCC2)n1 = inactive

Data request: Dear colleague, could you share the recorded outcome for Clc1ccc2c(NCCCN3CCOCC3)c3oc4ccc(Cl)cc4c3nc2c1 when you have a moment?
Data returned: inactive

Data request: Dear colleague, could you share the recorded outcome for N#Cc1nc(-c2ccccc2)oc1S(=O)(=O)N1CCN(CCc2ccccn2)CC1 when you have a moment?
Data returned: active
